tested on: P. aeruginosa; assay: AK assay 384-well format, Prestwick library screening; format: cell-based, Pseudomonas aeruginosa; details: Pseudomonas aeruginosa, 3 h; 50 μM final drug concentration; planktonic; cutoff for positive-scoring molecules 3-fold increase; read-out: AK-based Prestwick Library Screening Results, P. aeruginosa (fold increase in extracellular AK activity)
Structures can show the parent of a compound that is named as a salt.
Measured fold induction at 50 µM values are reported for all entries that follow.
Output: the number by itself.

Query: Which fold induction at 50 µM is reported for this molecule? C[N+]1(C)CCC(OC(=O)C(O)(c2ccccc2)C2CCCC2)C1 (stereo not drawn) [Glycopyrrolate]
Response: 0.9

Query: Which fold induction at 50 µM is reported for this molecule? O=c1cc(-c2ccccc2)oc2cc(O)cc(O)c12
Response: 0.1

Query: Which fold induction at 50 µM is reported for this molecule? NC[C@H]1O[C@H](O[C@H]2[C@H](O[C@@H]3O[C@H](CO)[C@@H](O)[C@H]3O)[C@@H](O)[C@H](N)C[C@@H]2N)[C@H](N)[C@@H](O)[C@@H]1O [Ribostamycin sulfate salt]
Response: 0.8

Query: Which fold induction at 50 µM is reported for this molecule? C[C@]12CC[C@@H]3c4ccc(OS(=O)(=O)O)cc4CC[C@H]3[C@@H]1CCC2=O [Estropipate]
Response: 1.1

Query: Which fold induction at 50 µM is reported for this molecule? CCCC(=O)Nc1ncnc2c1ncn2[C@@H]1O[C@@H]2COP(=O)(O)O[C@H]2[C@H]1OC(=O)CCC [Bucladesine sodium salt]
Response: 0.8

***
Query: Which fold induction at 50 µM is reported for this molecule? CC(=O)/N=c1/sc(S(N)(=O)=O)nn1C [Methazolamide]
Response: 0.6

Query: Which fold induction at 50 µM is reported for this molecule? COc1ccc(C(=O)c2ccccc2O)c(O)c1
Response: 0.7

Query: Which fold induction at 50 µM is reported for this molecule? CCOC(=O)C1=C(C)NC(C)=C(C(=O)OC)C1c1cccc([N+](=O)[O-])c1 (stereo not drawn)
Response: 0.9

---

system: K. pneumoniae; assay: AK assay 384-well format, Prestwick library screening; type: cell-based, Klebsiella pneumoniae; settings: Klebsiella pneumoniae, 3 h, planktonic K. pneumoniae; 50 μM final drug concentration; 384-well; […]; read-out: AK-based Prestwick Library Screening Results: K. pneumoniae (increase in extracellular AK activity)
Structures can show the parent of a compound that is named as a salt.
MEASURE NAME: fold induction at 50 µM
Output: the number by itself.

Query: Which fold induction at 50 µM is reported for this molecule? C1CCC(C(CC2CCCCN2)C2CCCCC2)CC1 (centres unmarked) [Perhexiline maleate]
Response: 1.6

Query: Which fold induction at 50 µM is reported for this molecule? O=C(OCC(O)CO)c1ccccc1Nc1ccnc2cc(Cl)ccc12 (centres unmarked) [Glafenine hydrochloride]
Response: 1

Query: Which fold induction at 50 µM is reported for this molecule? Cc1ccsc1/C=C/C1=NCCCN1C [Morantel tartrate]
Response: 0.9

Query: Which fold induction at 50 µM is reported for this molecule? CN1CCCN(C(c2ccccc2)c2ccc(Cl)cc2)CC1 (centres unmarked) [Homochlorcyclizine dihydrochloride]
Response: 1.1

***
Query: Which fold induction at 50 µM is reported for this molecule? CN(C)CCC(c1ccccc1)c1ccccn1 (centres unmarked) [Pheniramine maleate]
Response: 1

---

test system: E. cloacae; experiment: AK assay 384-well format, Prestwick library screening; type: cell-based, Enterobacter cloacae; conditions: Enterobacter cloacae, 3 h; 50 μM final drug concentration; 384-well format; cutoff for positive-scoring molecules 3-fold increase; read-out: AK-based Prestwick Library Screening Results, E. cloacae (increase in extracellular AK activity)
Where a name gives a salt, the structure may show the parent alone.
fold induction at 50 µM of 0.9 or higher: T. Under 0.9: F.

Examples from the recorded data:
Query: Could you tell me if the measured fold induction at 50 µM of Cc1ccc(/C(=C\CN2CCCC2)c2ccccn2)cc1 [Triprolidine hydrochloride] reaches 0.9 or more?
Response: T

Query: Could you tell me if the measured fold induction at 50 µM of CC(N/C(=N\C#N)Nc1ccncc1)C(C)(C)C (stereo not shown) [Pinacidil] reaches 0.9 or more?
Response: F

Query: Could you tell me if the measured fold induction at 50 µM of Nc1ccc(S(=O)(=O)c2ccc(N)cc2)cc1 [Dapsone] reaches 0.9 or more?
Response: T

Query: Could you tell me if the measured fold induction at 50 µM of CC(=O)Oc1ccccc1C(=O)Oc1ccccc1C(=O)O [Acetylsalicylsalicylic acid] reaches 0.9 or more?
Response: F

Query: Could you tell me if the measured fold induction at 50 µM of O=C1CN(/N=C/c2ccc([N+](=O)[O-])o2)C(=O)N1 [Nitrofurantoin] reaches 0.9 or more?
Response: F

***
Query: Could you tell me if the measured fold induction at 50 µM of CC(=O)CCCCn1c(=O)c2c(ncn2C)n(C)c1=O [Pentoxifylline] reaches 0.9 or more?
Response: T

Query: Could you tell me if the measured fold induction at 50 µM of COC(=O)Nc1nc2ccc(C(=O)c3cccs3)cc2[nH]1 [Nocodazole] reaches 0.9 or more?
Response: F

---

Measured fold induction at 50 µM values are reported for all entries that follow.
system: E. faecium; assay: AK assay 384-well format, Prestwick library screening; type: cell-based, Enterococcus faecium; settings: Enterococcus faecium, 3 h; planktonic E. faecium; 50 μM final drug concentration; cutoff for positive-scoring molecules 3-fold increase; read-out: AK-based Prestwick Library Screening Results, E. faecium (increase in extracellular AK activity)
Structures can show the parent of a compound that is named as a salt.
Output: the number by itself.

As a guide, the following entries are already answered.
Query: Which fold induction at 50 µM is reported for this compound? CN(C)C(=O)Oc1cc(OC(=O)N(C)C)cc(C(O)CNC(C)(C)C)c1 (centres unmarked) [Bambuterol hydrochloride]
Response: 1.1

Query: Which fold induction at 50 µM is reported for this compound? CC(C)N1CCN(c2ccc(OCC3COC(Cn4cncn4)(c4ccc(Cl)cc4Cl)O3)cc2)CC1 (centres unmarked) [Terconazole]
Response: 1

Query: Which fold induction at 50 µM is reported for this compound? C[C@]12C[C@H](O)[C@H]3[C@@H](CCC4=CC(=O)CC[C@@]43C)[C@@H]1CC[C@@H]2C(=O)CO [Corticosterone]
Response: 0.9

Query: Which fold induction at 50 µM is reported for this compound? C#CCN(C)CCCOc1ccc(Cl)cc1Cl [Clorgyline hydrochloride]
Response: 0.7

***
Query: Which fold induction at 50 µM is reported for this compound? O=C(/C=C/c1ccc(O)c(O)c1)O[C@@H]1C[C@](O)(C(=O)O)C[C@@H](O)[C@H]1O [Chlorogenic acid]
Response: 0.9

Query: Which fold induction at 50 µM is reported for this compound? CN(C)CCC=C1c2ccccc2C=Cc2ccccc21 [Cyclobenzaprine hydrochloride]
Response: 1

Query: Which fold induction at 50 µM is reported for this compound? OC(CCN1CCCCC1)(c1ccccc1)C1CC2C=CC1C2 (centres unmarked) [Biperiden hydrochloride]
Response: 0.9

Query: Which fold induction at 50 µM is reported for this compound? O=C1CCc2cc(OCCCCc3nnnn3C3CCCCC3)ccc2N1 [Cilostazol]
Response: 0.9

---

test system: P. aeruginosa; assay: AK assay 384-well format, Prestwick library screening; type: cell-based, Pseudomonas aeruginosa; settings: Pseudomonas aeruginosa, 3 h; 50 μM final drug concentration; cutoff for positive-scoring molecules 3-fold increase; read-out: AK-based Prestwick Library Screening Results, P. aeruginosa (fold increase in extracellular AK activity)
Counter-ions that a name gives are not always drawn.
MEASURE NAME: fold induction at 50 µM

As a guide, the following entries are already answered.
Query: Identify the measured fold induction at 50 µM of NC(CO)C(=O)NNCc1ccc(O)c(O)c1O (stereo not shown) [Benserazide hydrochloride] for P. aeruginosa.
Response: 1.1

Query: Identify the measured fold induction at 50 µM of O=C(O)c1ccccc1C(=O)Nc1ccc(S(=O)(=O)Nc2nccs2)cc1 [Phthalylsulfathiazole] for P. aeruginosa.
Response: 1

Query: Identify the measured fold induction at 50 µM of CN(C)CCCO[C@@H]1[C@H]2OC(C)(C)O[C@H]2O[C@@H]1[C@H](O)CO [Amiprilose hydrochloride] for P. aeruginosa.
Response: 1.1

Turning to the following compound.
Query: Identify the measured fold induction at 50 µM of Nc1ccc(S(=O)(=O)Nc2ccc(Cl)nn2)cc1 [Sulfachloropyridazine] for P. aeruginosa.
Response: 1

---

tested on: S. aureus strain USA300-0114; assay: AK assay 384-well format, Prestwick library screening; type: cell-based, Staphylococcus aureus; conditions: Staphylococcus aureus, USA300, 3 h, planktonic S. aureus; 50 μM final drug concentration; 384-well; […]; read-out: AK-based Prestwick Library Screening Results: S. aureus (increase in extracellular AK activity)
Where a name gives a salt, the structure may show the parent alone.
Measured fold induction at 50 µM values are reported for all entries that follow.
Output: the number by itself.

As a guide, the following entries are already answered.
Query: Which fold induction at 50 µM is reported for this molecule? CN(C)C(=O)C(CCN1CCC(O)(c2ccc(Cl)cc2)CC1)(c1ccccc1)c1ccccc1 [Loperamide hydrochloride]
Response: 1

Query: Which fold induction at 50 µM is reported for this molecule? CC(Cc1ccc(O)cc1)NCC(O)c1cc(O)cc(O)c1 (centres unmarked) [Fenoterol hydrobromide]
Response: 1

Query: Which fold induction at 50 µM is reported for this molecule? Cc1cc(C(C)(C)C)cc(C)c1CC1=NCCN1 [Xylometazoline hydrochloride]
Response: 1.2

Query: Which fold induction at 50 µM is reported for this molecule? NCCc1c[nH]c2ccc(O)cc12 [Serotonin hydrochloride]
Response: 0.6

***
Query: Which fold induction at 50 µM is reported for this molecule? C[N+]1(C)CCC(=C(c2ccccc2)c2ccccc2)CC1 [Diphemanil methylsulfate]
Response: 1.5
